System under test: SGLT-1 (Homo sapiens, UniProt P13866)
Protocol text: [14C]-AMG absorption in stable SGLT1 expressing Flp-in CHO cells (SGLT-1 activity screening assay)
Test conditions: 14C-AMG uptake, 37° C. 1 h, 1% DMSO
Readout type: pIC50
Field pIC50 (float): negative decimal logarithm of the concentration in molar.

* OC[C@H]1O[C@@H](c2cccc(Cc3ccc(OCC4Cc5ccccc5O4)cc3)c2)[C@H](O)[C@@H](O)[C@@H]1O (some centres unmarked) [Compound I-30] | 5.03
* CC1(COc2ccc(Cc3cc([C@@H]4O[C@H](CO)[C@@H](O)[C@H](O)[C@H]4O)ccc3Cl)cc2)OCc2ccccc21 (single isomer, unassigned) [Compound I-116] | 5.88
* OC[C@H]1O[C@@H](c2ccc(Cl)c(Cc3ccc(OC[C@H]4Cc5ccccc5O4)cc3)c2)[C@H](O)[C@@H](O)[C@@H]1O [Compound I-24] | 5.92
* Cc1ccc([C@@H]2O[C@H](CO)[C@@H](O)[C@H](O)[C@H]2O)cc1Cc1ccc(-c2ccc(F)cc2)s1 [B, Canagliflozin, reference compound] | 6.54
* OC[C@H]1O[C@@H](c2ccc(F)c(Cc3ccc(OCc4cc5ccccc5o4)cc3)c2)[C@H](O)[C@@H](O)[C@@H]1O [Compound I-2] | 5.59

Turning now to a further molecule:
Quick one: give measured pIC50 for OC[C@H]1O[C@@H](c2ccc(Cl)c(Cc3ccc(OCC4Cc5ccccc5O4)c(F)c3)c2)[C@H](O)[C@@H](O)[C@@H]1O (some centres unmarked) [Compound I-12]
5.97

----------
System under test: SGLT-2 (Homo sapiens)
Sequence (P31639 1-672): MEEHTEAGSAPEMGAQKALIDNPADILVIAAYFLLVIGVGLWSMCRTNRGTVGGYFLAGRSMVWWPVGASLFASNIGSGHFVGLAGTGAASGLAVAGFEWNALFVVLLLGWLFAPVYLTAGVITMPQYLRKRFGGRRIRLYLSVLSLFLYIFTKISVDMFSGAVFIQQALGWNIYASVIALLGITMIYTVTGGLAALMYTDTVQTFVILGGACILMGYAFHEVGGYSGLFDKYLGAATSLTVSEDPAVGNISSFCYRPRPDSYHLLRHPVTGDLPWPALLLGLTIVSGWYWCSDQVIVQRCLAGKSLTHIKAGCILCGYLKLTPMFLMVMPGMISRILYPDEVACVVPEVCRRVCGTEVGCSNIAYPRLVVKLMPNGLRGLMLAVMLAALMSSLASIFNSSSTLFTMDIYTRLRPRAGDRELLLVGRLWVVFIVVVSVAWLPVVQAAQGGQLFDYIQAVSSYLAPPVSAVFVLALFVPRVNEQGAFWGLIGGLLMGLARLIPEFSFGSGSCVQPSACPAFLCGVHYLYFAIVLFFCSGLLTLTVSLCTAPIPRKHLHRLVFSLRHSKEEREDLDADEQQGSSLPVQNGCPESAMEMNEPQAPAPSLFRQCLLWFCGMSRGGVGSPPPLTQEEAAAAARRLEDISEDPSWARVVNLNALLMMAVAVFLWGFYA
Protocol text: [14C]-AMG absorption in stable SGLT2 expressing Flp-in CHO cells (SGLT-2 activity screening assay)
Test conditions: 14C-AMG uptake, 37° C. 1 h, 1% DMSO
Listed below: pIC50 values for each entry.
On this scale, pIC50 is minus log10 of a concentration expressed in M (mol/L).

Consider the worked cases shown below.
* Cc1ccc([C@@H]2O[C@H](CO)[C@@H](O)[C@H](O)[C@H]2O)cc1Cc1ccc(OCC2(C)OCc3ccccc32)cc1 (single isomer, unassigned) [Compound I-114] | 8.28
* OC[C@H]1O[C@@H](c2ccc(Cl)c(Cc3ccc(OC[C@@H]4OCc5ccccc54)cc3)c2)[C@H](O)[C@@H](O)[C@@H]1O | 9.00
* OC[C@H]1O[C@@H](c2ccc(Cl)c(Cc3ccc(OCC4Cc5cc(F)ccc5O4)cc3)c2)[C@H](O)[C@@H](O)[C@@H]1O (stereo partly drawn) | 8.17

Annotate the compound OC[C@H]1O[C@@H](c2cccc(Cc3ccc(OCC4Cc5ccccc5O4)cc3)c2)[C@H](O)[C@@H](O)[C@@H]1O (stereo partly drawn) with its measured pIC50.
6.90

For the compound Cc1ccc([C@@H]2O[C@H](CO)[C@@H](O)[C@H](O)[C@H]2O)cc1Cc1ccc(OCC2(C)OCc3ccccc32)cc1 (single isomer, unassigned) [Compound I-113] , report pIC50.
7.73

Please list pIC50 recorded for the compound Cc1ccc([C@@H]2O[C@H](CO)[C@@H](O)[C@H](O)[C@H]2O)cc1Cc1ccc(OCC2Cc3ccccc3O2)cc1 (stereo partly drawn) [Compound I-25]
8.39

----------
System under test: SGLT-2 (Homo sapiens)
Sequence (P31639 1-672): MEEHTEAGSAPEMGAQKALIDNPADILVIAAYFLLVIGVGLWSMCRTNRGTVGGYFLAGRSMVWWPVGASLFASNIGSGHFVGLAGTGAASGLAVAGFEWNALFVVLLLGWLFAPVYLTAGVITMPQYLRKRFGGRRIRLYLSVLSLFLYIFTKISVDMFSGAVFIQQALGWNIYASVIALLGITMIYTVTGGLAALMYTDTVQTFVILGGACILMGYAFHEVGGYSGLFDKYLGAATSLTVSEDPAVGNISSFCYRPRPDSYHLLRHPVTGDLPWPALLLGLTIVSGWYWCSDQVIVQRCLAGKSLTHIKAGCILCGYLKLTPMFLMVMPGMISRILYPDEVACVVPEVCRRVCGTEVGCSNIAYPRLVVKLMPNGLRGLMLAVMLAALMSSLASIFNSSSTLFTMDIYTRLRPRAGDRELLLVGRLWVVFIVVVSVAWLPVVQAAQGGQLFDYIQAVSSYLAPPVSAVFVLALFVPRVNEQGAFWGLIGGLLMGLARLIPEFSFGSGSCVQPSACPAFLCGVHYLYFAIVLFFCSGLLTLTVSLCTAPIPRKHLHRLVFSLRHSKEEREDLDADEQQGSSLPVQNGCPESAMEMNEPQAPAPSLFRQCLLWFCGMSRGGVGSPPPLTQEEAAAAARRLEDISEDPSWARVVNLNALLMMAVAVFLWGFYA
Protocol text: [14C]-AMG absorption in stable SGLT2 expressing Flp-in CHO cells (SGLT-2 activity screening assay)
Test conditions: 14C-AMG uptake, 37° C. 1 h, 1% DMSO
pIC50: −log10 of the molar value.
Please mark satisfied if the recorded pIC50 is equal to or greater than 8, and not satisfied if it falls below.

• OC[C@H]1O[C@@H](c2ccc(Cl)c(Cc3ccc(OC[C@@H]4Cc5ccccc5O4)cc3)c2)[C@H](O)[C@@H](O)[C@@H]1O = satisfied
• COc1ccc([C@@H]2O[C@H](CO)[C@@H](O)[C@H](O)[C@H]2O)cc1Cc1ccc(OCC2Cc3ccccc3O2)cc1 (stereo partly drawn) = not satisfied
• Cc1ccc([C@@H]2O[C@H](CO)[C@@H](O)[C@H](O)[C@H]2O)cc1Cc1ccc(-c2ccc(F)cc2)s1 [B, Canagliflozin, reference compound] = satisfied
• CC1(COc2ccc(Cc3cc([C@@H]4O[C@H](CO)[C@@H](O)[C@H](O)[C@H]4O)ccc3Cl)cc2)Cc2ccccc2O1 (single isomer, unassigned) [Compound I-106] = not satisfied
• Cc1ccc([C@@H]2O[C@H](CO)[C@@H](O)[C@H](O)[C@H]2O)cc1Cc1ccc(OCC2(C)Cc3ccccc3O2)cc1 (single isomer, unassigned) [Compound I-111] = not satisfied
• OC[C@H]1O[C@@H](c2ccc(Cl)c(Cc3ccc(OCc4cc5cc(F)ccc5o4)cc3)c2)[C@H](O)[C@@H](O)[C@@H]1O = not satisfied
• OC[C@H]1O[C@@H](c2ccc(Cl)c(Cc3ccc(OCc4cc5ccccc5o4)c(F)c3)c2)[C@H](O)[C@@H](O)[C@@H]1O = not satisfied

Pending molecule:
API: above_or_equal(metric=pIC50, cutoff=8) for item OC[C@H]1O[C@@H](c2ccc(Cl)c(Cc3ccc(OCC4OCc5ccccc54)cc3)c2)[C@H](O)[C@@H](O)[C@@H]1O (stereo partly drawn)
satisfied

----------
System under test: SGLT-1 (Homo sapiens)
Sequence (P13866 1-664): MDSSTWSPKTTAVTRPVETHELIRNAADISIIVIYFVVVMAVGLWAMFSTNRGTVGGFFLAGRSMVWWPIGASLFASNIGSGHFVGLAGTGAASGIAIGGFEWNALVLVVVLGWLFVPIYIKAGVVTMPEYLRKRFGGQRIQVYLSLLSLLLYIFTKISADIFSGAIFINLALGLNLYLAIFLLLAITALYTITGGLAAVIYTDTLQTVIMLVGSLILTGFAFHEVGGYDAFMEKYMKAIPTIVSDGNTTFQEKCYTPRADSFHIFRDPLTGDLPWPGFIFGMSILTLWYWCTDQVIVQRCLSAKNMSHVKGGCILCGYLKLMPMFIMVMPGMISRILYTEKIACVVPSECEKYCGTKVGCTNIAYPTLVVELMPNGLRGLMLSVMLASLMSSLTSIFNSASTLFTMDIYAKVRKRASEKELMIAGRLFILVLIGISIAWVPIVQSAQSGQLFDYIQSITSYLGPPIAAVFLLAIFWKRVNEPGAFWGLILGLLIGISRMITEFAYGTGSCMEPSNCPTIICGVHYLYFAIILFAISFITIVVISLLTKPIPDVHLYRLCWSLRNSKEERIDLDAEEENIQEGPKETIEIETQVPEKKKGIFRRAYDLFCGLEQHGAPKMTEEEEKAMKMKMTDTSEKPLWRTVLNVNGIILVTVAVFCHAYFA
Protocol text: [14C]-AMG absorption in stable SGLT1 expressing Flp-in CHO cells (SGLT-1 activity screening assay)
Test conditions: 14C-AMG uptake, 37° C. 1 h, 1% DMSO
In plain terms, low IC50, meaning strictly below 600 nM, gives 1.0, and everything else gives 0.0.

The examples below pair each entry with its known result.
* Cc1ccc([C@@H]2O[C@H](CO)[C@@H](O)[C@H](O)[C@H]2O)cc1Cc1ccc(OC[C@@H]2Cc3ccccc3O2)cc1 | 1.0
* Cc1ccc([C@@H]2O[C@H](CO)[C@@H](O)[C@H](O)[C@H]2O)cc1Cc1ccc(OCC2(C)Cc3ccccc3O2)cc1 (single isomer, unassigned) [Compound I-110] | 1.0
* OC[C@H]1O[C@@H](c2ccc(Cl)c(Cc3ccc(OCC4Cc5ccccc5O4)cc3)c2)[C@H](O)[C@@H](O)[C@@H]1O (some centres unmarked) | 0.0
* OC[C@H]1O[C@@H](c2ccc(Cl)c(Cc3ccc(OC[C@@H]4Cc5ccccc5O4)cc3)c2)[C@H](O)[C@@H](O)[C@@H]1O | 1.0

Next:
I'd appreciate it if you could check whether N#Cc1ccc([C@@H]2O[C@H](CO)[C@@H](O)[C@H](O)[C@H]2O)cc1Cc1ccc(OCC2Cc3ccccc3O2)cc1 (some centres unmarked) has IC50 smaller than 600 nM.
0.0
